TESTED SYSTEM: acetylcholinesterase enzyme from electric eel (Electrophorus electricus, UniProt O42275)
Construct: purchased Sigma-Aldrich CAS Number 9000-81-1 (catalogue number not given)
Sequence (O42275 24-633): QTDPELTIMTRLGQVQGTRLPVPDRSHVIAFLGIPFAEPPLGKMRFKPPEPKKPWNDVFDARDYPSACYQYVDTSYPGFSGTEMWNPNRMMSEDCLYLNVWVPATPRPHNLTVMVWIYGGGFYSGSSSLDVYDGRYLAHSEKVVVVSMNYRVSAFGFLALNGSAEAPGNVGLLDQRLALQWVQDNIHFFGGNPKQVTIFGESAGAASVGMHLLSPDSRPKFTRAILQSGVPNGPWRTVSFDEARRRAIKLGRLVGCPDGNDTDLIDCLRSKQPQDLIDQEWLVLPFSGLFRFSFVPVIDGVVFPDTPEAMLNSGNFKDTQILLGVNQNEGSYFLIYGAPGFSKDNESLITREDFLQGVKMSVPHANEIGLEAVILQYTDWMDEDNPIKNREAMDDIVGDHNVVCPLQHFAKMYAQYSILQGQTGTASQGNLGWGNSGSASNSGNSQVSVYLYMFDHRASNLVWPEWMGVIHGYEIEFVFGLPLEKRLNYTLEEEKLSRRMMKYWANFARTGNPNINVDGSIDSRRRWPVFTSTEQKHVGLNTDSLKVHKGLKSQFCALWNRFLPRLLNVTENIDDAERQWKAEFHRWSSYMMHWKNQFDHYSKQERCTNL
PROTOCOL TEXT: Acetylcholinesterase (AChE) inhibitory assay (DTNB/acetylthiocholine iodide, absorbance at 412 nm)
Type: biochemical
CONDITION DETAILS: supplement, six concentrations 1.56-50 μg/mL; read-out: IC50 (AchE inhibition) (converted)
Could you please mark condition met for values of IC50 below 40 µM and condition not met for values at or above it?

Reference set (3 entries):
COMPOUND: O=C(c1ccc(C(F)(F)F)cc1)C1C(c2cc3ccccc3s2)C2CSCN2[C@@]12C(=O)Nc1ccccc12 (stereo partly shown) [IIj]
TESTED SYSTEM: acetylcholinesterase enzyme from electric eel (Electrophorus electricus, UniProt O42275)
LABEL: condition not met
//
COMPOUND: O=C(c1ccccc1)C1C(c2cc3ccccc3s2)C2C3CCCCC3CN2[C@@]12C(=O)Nc1ccc(Cl)cc12 (stereo partly shown) [IIc]
TESTED SYSTEM: acetylcholinesterase enzyme from electric eel (Electrophorus electricus, UniProt O42275)
LABEL: condition met
//
COMPOUND: O=C(c1ccc(Cl)cc1)C1C(c2cc3ccccc3s2)C2C3CCCCC3CN2[C@@]12C(=O)Nc1ccc(Cl)cc12 (stereo partly shown) [IIf]
TESTED SYSTEM: acetylcholinesterase enzyme from electric eel (Electrophorus electricus, UniProt O42275)
LABEL: condition met

// query Say whether its IC50 is strictly beneath 40 µM. Entry: O=C(c1ccc(Cl)cc1)C1C(c2cc3ccccc3s2)C2CSCN2[C@@]12C(=O)Nc1ccccc12 (stereo partly shown) [IIe]
// result condition not met

// query Say whether its IC50 is strictly beneath 40 µM. Entry: O=C(c1ccc(F)cc1)C1C(c2cc3ccccc3s2)C2C3CCCCC3CN2[C@@]12C(=O)Nc1ccc(Cl)cc12 (stereo partly shown) [IIh]
// result condition not met

// query Say whether its IC50 is strictly beneath 40 µM. Entry: O=C(c1ccc(Br)cc1)C1C(c2cc3ccccc3s2)C2CSCN2[C@@]12C(=O)Nc1ccc(Cl)cc12 (stereo partly shown) [IIl]
// result condition met

// query Say whether its IC50 is strictly beneath 40 µM. Entry: O=C(c1ccc(C(F)(F)F)cc1)C1C(c2cc3ccccc3s2)C2C3CCCCC3CN2[C@@]12C(=O)Nc1ccc(Cl)cc12 (stereo partly shown) [IIk]
// result condition not met

// query Say whether its IC50 is strictly beneath 40 µM. Entry: O=C(c1ccc(C(F)(F)F)cc1)C1C(c2cc3ccccc3s2)C2CSCN2[C@@]12C(=O)Nc1ccc(Cl)cc12 (stereo partly shown) [IIi]
// result condition not met

// query Say whether its IC50 is strictly beneath 40 µM. Entry: O=C(c1ccc(Br)cc1)C1C(c2cc3ccccc3s2)C2C3CCCCC3CN2[C@@]12C(=O)Nc1ccc(Cl)cc12 (stereo partly shown) [IIn]
// result condition met

// query Say whether its IC50 is strictly beneath 40 µM. Entry: O=C(c1ccc(F)cc1)C1C(c2cc3ccccc3s2)C2CSCN2[C@@]12C(=O)Nc1ccc(Cl)cc12 (stereo partly shown) [IIg]
// result condition met

// query Say whether its IC50 is strictly beneath 40 µM. Entry: O=C(c1ccc(Cl)cc1)C1C(c2cc3ccccc3s2)C2CSCN2[C@@]12C(=O)Nc1ccc(Cl)cc12 (stereo partly shown) [IId]
// result condition met

// query Say whether its IC50 is strictly beneath 40 µM. Entry: O=C(c1ccccc1)C1C(c2cc3ccccc3s2)C2CSCN2[C@@]12C(=O)Nc1ccc(Cl)cc12 (stereo partly shown) [IIa]
// result condition not met

// query Say whether its IC50 is strictly beneath 40 µM. Entry: O=C(c1ccccc1)C1C(c2cc3ccccc3s2)C2CSCN2[C@@]12C(=O)Nc1ccccc12 (stereo partly shown) [IIb]
// result condition not met
